The values you see were collected from ChEMBL document CHEMBL4699477.

protocol notes: Volume of distribution at steady state in dog at 1 mg/kg, iv
Format: ADME, organism-based, Canis lupus familiaris
conditions: in vivo, read-out: Vdss
measure: Vd
Answer with the figure and its unit, nothing else.

Task: Could you share which Vd value was measured for `C[C@H]1C[C@H](C(=O)O)CC[C@H]1C(=O)N1CC[C@@]2(S(=O)(=O)c3ccccc3)c3cc(F)c(C(F)(C(F)(F)F)C(F)(F)F)cc3CC[C@@H]12` ?
Output: 0.7 L/kg

---

protocol notes: Total AUC in cynomolgus monkey at 1 mg/kg, iv
Assay type: ADME, organism-based, Macaca fascicularis
Set-up: time AUCmax, route intravenous, dose 1 mg/kg
conditions: in vivo
measure: AUC (µM·h)
The reply should be a number in µM·h, with the unit left off.

Task: Could you share which AUC value was measured for `C[C@H]1C[C@H](C(=O)O)CC[C@H]1C(=O)N1CC[C@@]2(S(=O)(=O)c3ccccc3)c3cc(F)c(C(F)(C(F)(F)F)C(F)(F)F)cc3CC[C@@H]12` ?
Output: 23

---

protocol notes: Cmax in rat at 4 mg/kg, po
Format: ADME, organism-based
Design: route oral, dose 4 mg/kg
conditions: in vivo
measure: Cmax (µM)
The reply should be a number in µM, with the unit left off.

Task: Could you share which Cmax value was measured for `C[C@H]1C[C@H](C(=O)O)CC[C@H]1C(=O)N1CC[C@@]2(S(=O)(=O)c3ccccc3)c3cc(F)c(C(F)(C(F)(F)F)C(F)(F)F)cc3CC[C@@H]12` ?
Output: 4.1

---

protocol notes: Half life in BALB/c mouse at 2 mg/kg, iv
Assay type: ADME, organism-based
conditions: in vivo
measure: half-life (h)
The reply should be a number in h, with the unit left off.

Task: Could you share which half-life value was measured for `C[C@H]1C[C@H](C(=O)O)CC[C@H]1C(=O)N1CC[C@@]2(S(=O)(=O)c3ccccc3)c3cc(F)c(C(F)(C(F)(F)F)C(F)(F)F)cc3CC[C@@H]12` ?
Output: 7.7

---

protocol notes: Solubility of compound at pH 7.4
Type: physicochemical
conditions: buffer
measure: solubility
Answer with the figure and its unit, nothing else.

Task: Could you share which solubility value was measured for `C[C@H]1C[C@H](C(=O)O)CC[C@H]1C(=O)N1CC[C@@]2(S(=O)(=O)c3ccccc3)c3cc(F)c(C(F)(C(F)(F)F)C(F)(F)F)cc3CC[C@@H]12` ?
Output: 1600 µg/mL

---

protocol notes: Solubility of compound at pH 1
Assay type: physicochemical
conditions: buffer
measure: solubility
Answer with the figure and its unit, nothing else.

Task: Could you share which solubility value was measured for `C[C@H]1C[C@H](C(=O)O)CC[C@H]1C(=O)N1CC[C@@]2(S(=O)(=O)c3ccccc3)c3cc(F)c(C(F)(C(F)(F)F)C(F)(F)F)cc3CC[C@@H]12` ?
Output: 1.4 µg/mL

---

target: Cytochrome P450 1A2 (Homo sapiens)
Sequence (P05177 whole entry): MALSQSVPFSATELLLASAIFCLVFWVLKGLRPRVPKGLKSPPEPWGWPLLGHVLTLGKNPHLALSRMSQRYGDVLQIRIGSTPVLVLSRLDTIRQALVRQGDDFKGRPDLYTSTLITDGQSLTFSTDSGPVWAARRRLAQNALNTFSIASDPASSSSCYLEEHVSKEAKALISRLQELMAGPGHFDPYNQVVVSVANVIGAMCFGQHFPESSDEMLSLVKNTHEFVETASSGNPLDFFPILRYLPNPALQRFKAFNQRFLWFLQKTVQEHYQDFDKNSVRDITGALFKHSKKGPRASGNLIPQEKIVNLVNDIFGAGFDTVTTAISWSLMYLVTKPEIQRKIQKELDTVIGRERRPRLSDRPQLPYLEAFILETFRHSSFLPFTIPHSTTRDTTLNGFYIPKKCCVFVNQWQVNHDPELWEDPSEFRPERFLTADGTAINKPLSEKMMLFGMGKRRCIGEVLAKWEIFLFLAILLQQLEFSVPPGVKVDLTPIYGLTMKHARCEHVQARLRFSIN
protocol notes: Inhibition of recombinant CYP1A2 (unknown origin)
measure: IC50

Task: Could you share which IC50 value was measured for `C[C@H]1C[C@H](C(=O)O)CC[C@H]1C(=O)N1CC[C@@]2(S(=O)(=O)c3ccccc3)c3cc(F)c(C(F)(C(F)(F)F)C(F)(F)F)cc3CC[C@@H]12` ?
Output: > 20 µM

---

protocol notes: Metabolic stability in rat liver microsomes assessed as half life
Type: ADME, Microsome
measure: half-life

Sample answers from the record:
{"columns": ["compound", "half-life"],
 "data": [
  ["Cc1cc2c(cc1C(F)(C(F)(F)F)C(F)(F)F)CC[C@H]1N(C(=O)[C@H]3CC[C@H](C(=O)O)CC3)CC[C@@]21S(=O)(=O)c1ccc(F)cc1", "> 2 h"],
  ["N#Cc1cc2c(cc1C(F)(C(F)(F)F)C(F)(F)F)CC[C@H]1N(C(=O)[C@H]3CC[C@H](C(=O)O)CC3)CC[C@@]21S(=O)(=O)c1ccc(F)cc1", "1.45 h"],
  ["O=C(O)[C@H]1CC[C@H](C(=O)N2CC[C@@]3(S(=O)(=O)c4ccc(F)cc4)c4cc(Cl)c(C(F)(C(F)(F)F)C(F)(F)F)cc4CC[C@@H]23)CC1", "1.38 h"],
  ["C[C@H]1C[C@H](C(=O)O)CC[C@H]1C(=O)N1CC[C@@]2(S(=O)(=O)c3ccc(F)cc3)c3ccc(C(F)(C(F)(F)F)C(F)(F)F)cc3CC[C@@H]12 [BMS-986251]", "> 2 h"]
]}

Pending compound:
Task: Could you share which half-life value was measured for `C[C@H]1C[C@H](C(=O)O)CC[C@H]1C(=O)N1CC[C@@]2(S(=O)(=O)c3ccccc3)c3cc(F)c(C(F)(C(F)(F)F)C(F)(F)F)cc3CC[C@@H]12` ?
Output: > 2 h
